Tested on: PCSK9 gene
measurement description: PCSK9 gRNA/SpCas9 editing in primary human hepatocytes (Tables 2, 4)
Type: cell-based
measurement parameters: 500 ng/RNA/mL; SpCas9 mRNA MS002 1:1 by weight
In the oligonucleotide strings, read from the 5' end, every base follows the letter of its sugar. An asterisk marks phosphorothioate; unmarked linkages are phosphodiester. Other units and linkages are bracketed, terminal groups are in braces. A string of capitals states the bases alone. m = 2'-O-methyl; r = 2'-OH (RNA)
measurement kind: Human Primary Hepatocyte Editing % 500 (%)
The answer is to be given in %; state only the numeric part.

Task: Human Primary Hepatocyte Editing % 500 for GA163: PCSK9 gRNA; protospacer CGTCCTCGTCCTCCTGCGCA (SEQ ID NO: 157) (nucleic acid, sugars from the 5' end m3 r94 m3, linkages s3 o93 s3 (s phosphorothioate, o phosphodiester), T or U not given here) guide: CGUCCUCGUCCUCCUGCGCAGUUUUAGAGCUAGAAAUAGCAAGUUAAAAUAAGGCUAGUCCGUUAUCAACUUGAAAAAGUGGCACCGAGUCGGUGCUUUU ?
Output: 9.2

Task: Human Primary Hepatocyte Editing % 500 for GA228: PCSK9 gRNA; protospacer CGGCTGTACCCACCCGCCAG (SEQ ID NO: 222) (nucleic acid, sugars from the 5' end m3 r94 m3, linkages s3 o93 s3 (s phosphorothioate, o phosphodiester), T or U not given here) guide: CGGCUGUACCCACCCGCCAGGUUUUAGAGCUAGAAAUAGCAAGUUAAAAUAAGGCUAGUCCGUUAUCAACUUGAAAAAGUGGCACCGAGUCGGUGCUUUU ?
Output: 10.96

Task: Human Primary Hepatocyte Editing % 500 for GA210: PCSK9 gRNA; protospacer CTGCGCGTGCTCAACTGCCA (SEQ ID NO: 204) (nucleic acid, sugars from the 5' end m3 r94 m3, linkages s3 o93 s3 (s phosphorothioate, o phosphodiester), T or U not given here) guide: CUGCGCGUGCUCAACUGCCAGUUUUAGAGCUAGAAAUAGCAAGUUAAAAUAAGGCUAGUCCGUUAUCAACUUGAAAAAGUGGCACCGAGUCGGUGCUUUU ?
Output: 5.86

Task: Human Primary Hepatocyte Editing % 500 for GA162: PCSK9 gRNA; protospacer GGACGGCGACTACGAGGAGC (SEQ ID NO: 156) (nucleic acid) guide: mG*mG*mA*rCrGrGrCrGrArCrUrArCrGrArGrGrArGrCrGrUrUrUrUrArGrArGrCrUrArGrArArArUrArGrCrArArGrUrUrArArArArUrArArGrGrCrUrArGrUrCrCrGrUrUrArUrCrArArCrUrUrGrArArArArArGrUrGrGrCrArCrCrGrArGrUrCrGrGrUrGrCrU*mU*mU*mU ?
Output: 12.97

Task: Human Primary Hepatocyte Editing % 500 for GA204: PCSK9 gRNA; protospacer CACTCTGTATGCTGGTGTCT (SEQ ID NO: 198) (nucleic acid, sugars from the 5' end m3 r94 m3, linkages s3 o93 s3 (s phosphorothioate, o phosphodiester), T or U not given here) guide: CACUCUGUAUGCUGGUGUCUGUUUUAGAGCUAGAAAUAGCAAGUUAAAAUAAGGCUAGUCCGUUAUCAACUUGAAAAAGUGGCACCGAGUCGGUGCUUUU ?
Output: 8.98

Task: Human Primary Hepatocyte Editing % 500 for GA166: PCSK9 gRNA; protospacer CGCCCGTGCGCAGGAGGACG (SEQ ID NO: 160) (nucleic acid, sugars from the 5' end m3 r94 m3, linkages s3 o93 s3 (s phosphorothioate, o phosphodiester), T or U not given here) guide: CGCCCGUGCGCAGGAGGACGGUUUUAGAGCUAGAAAUAGCAAGUUAAAAUAAGGCUAGUCCGUUAUCAACUUGAAAAAGUGGCACCGAGUCGGUGCUUUU ?
Output: 10.99

Values were extracted from patent US20250152746A1.
